# maps each entry to its pIC50
target: CDK12/CycK (Homo sapiens, UniProt Q9NYV4); construct: His-CDK12 (aa Q696-S1082); assay: CDK12/CycK high ATP kinase assay (TR-FRET, 2 mM ATP); conditions: read-out: CDK12/CyclinK, 2 mM ATP (high ATP), IC50-[mol/l] (median)
Sequence (Q9NYV4 with tags, fused parts or gaps): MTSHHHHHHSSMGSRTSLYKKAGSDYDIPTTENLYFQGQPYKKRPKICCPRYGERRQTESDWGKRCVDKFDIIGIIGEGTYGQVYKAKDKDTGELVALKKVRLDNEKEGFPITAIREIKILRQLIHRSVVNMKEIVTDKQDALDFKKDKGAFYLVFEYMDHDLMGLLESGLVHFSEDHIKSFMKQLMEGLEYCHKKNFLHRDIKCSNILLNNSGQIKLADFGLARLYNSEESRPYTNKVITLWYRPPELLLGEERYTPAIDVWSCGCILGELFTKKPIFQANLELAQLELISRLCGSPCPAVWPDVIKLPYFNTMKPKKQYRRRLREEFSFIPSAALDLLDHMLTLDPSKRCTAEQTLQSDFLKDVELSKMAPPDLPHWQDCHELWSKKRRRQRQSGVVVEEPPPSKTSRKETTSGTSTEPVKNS
Sequence (O75909 with tags, fused parts or gaps partner limits assumed): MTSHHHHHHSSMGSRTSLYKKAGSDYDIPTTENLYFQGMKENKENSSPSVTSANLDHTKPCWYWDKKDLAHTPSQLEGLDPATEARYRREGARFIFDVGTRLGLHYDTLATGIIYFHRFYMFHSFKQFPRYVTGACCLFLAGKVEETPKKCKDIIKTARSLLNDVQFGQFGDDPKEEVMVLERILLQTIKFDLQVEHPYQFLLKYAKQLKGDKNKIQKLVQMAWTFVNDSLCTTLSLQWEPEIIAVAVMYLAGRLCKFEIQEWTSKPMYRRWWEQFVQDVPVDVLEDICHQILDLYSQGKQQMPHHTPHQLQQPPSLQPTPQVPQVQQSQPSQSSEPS
Scale: negative log10 of molar concentration, which is what pIC50 denotes.

For orientation, consider the following solved cases.
OC[C@@H]1CCCCN1c1nc(NCc2nc3ccccc3[nH]2)c2ncc(Br)n2n1; 6.94
Fc1ccc2[nH]c(CNc3nc(N4CCNCC4)nn4c(Br)cnc34)nc2c1F; 5.86
CN1CCN(c2nc(NCc3nc4c(F)c(F)ccc4[nH]3)c3ncc(C(F)(F)F)n3n2)CC1; 5.77
COc1cccc2[nH]c(CNc3nc(N4CCOCC4)nn4c(Br)cnc34)nc12; 5.88
CN1CCN(c2nc(NCc3nc4cc(F)ccc4[nH]3)c3ncc(Br)n3n2)CC1; 4.78

pIC50 reading for Fc1ccc2[nH]c(CNc3nc(N4CCOCC4)nn4c(Br)cnc34)nc2c1F : 5.90

So for C[C@@H]1CN(c2nc(NCc3nc4c(F)c(F)ccc4[nH]3)c3ncc(Br)n3n2)C[C@H](C)O1 , the logged pIC50 turned out to be 6.86

Noted for C[C@@H]1CN(c2nc(NCc3nc4c(F)c(F)ccc4[nH]3)c3ncc(C(F)(F)F)n3n2)C[C@H](C)N1 : its pIC50 reads 7.39

pIC50 in this record for C[C@@H]1CN(c2nc(NCc3nc4ccccc4[nH]3)c3ncc(Br)n3n2)C[C@H](C)N1 : 5.31

Just so you know, measured pIC50 for C[C@@H]1CN(c2nc(NCc3nc4ccccc4[nH]3)c3ncc(C(F)(F)F)n3n2)C[C@H](C)N1.O=CO came out at 6.13

Query Fc1cccc2[nH]c(CNc3nc(N4CCOCC4)nn4c(Br)cnc34)nc12 yields pIC50 of 5.33

Briefly, pIC50 measured for COc1cccc2[nH]c(CNc3nc(N4C[C@@H](C)N[C@@H](C)C4)nn4c(Br)cnc34)nc12 : 5.70

// pIC50 lookup, molecule = Fc1ccc2[nH]c(CNc3nc(N4CCOCC4)nn4c(C(F)(F)F)cnc34)nc2c1F , result: 7.97

For FC(F)(F)c1cnc2c(NCc3nc4ccccc4[nH]3)nc(N3CCOCC3)nn12 the molecule record lists pIC50 as 6.76

Form: molecule = Brc1cnc2c(NCc3nc4ccccc4[nH]3)nc(N3CCOCC3)nn12 ; pIC50 = 5.29

Just so you know, measured pIC50 for CN(CC(C)(C)O)c1nc(NCc2nc3ccccc3[nH]2)c2ncc(C(F)(F)F)n2n1 came out at 6.79

###

biological target: CDK12 (Homo sapiens, UniProt Q9NYV4); construct: endogenous in cells; host or cells: CAL-120 human breast cancer cells (DSMZ ACC 459); assay: CDK12 nuclear protein level: immunofluorescence/high content analysis in CAL-120 cells; type: cell-based; details: CAL-120 cells, 24 h, nuclear CDK12 staining; read-out: CDK12 degradation IF DC50-[mol/l] (median)
Sequence (Q9NYV4 whole entry): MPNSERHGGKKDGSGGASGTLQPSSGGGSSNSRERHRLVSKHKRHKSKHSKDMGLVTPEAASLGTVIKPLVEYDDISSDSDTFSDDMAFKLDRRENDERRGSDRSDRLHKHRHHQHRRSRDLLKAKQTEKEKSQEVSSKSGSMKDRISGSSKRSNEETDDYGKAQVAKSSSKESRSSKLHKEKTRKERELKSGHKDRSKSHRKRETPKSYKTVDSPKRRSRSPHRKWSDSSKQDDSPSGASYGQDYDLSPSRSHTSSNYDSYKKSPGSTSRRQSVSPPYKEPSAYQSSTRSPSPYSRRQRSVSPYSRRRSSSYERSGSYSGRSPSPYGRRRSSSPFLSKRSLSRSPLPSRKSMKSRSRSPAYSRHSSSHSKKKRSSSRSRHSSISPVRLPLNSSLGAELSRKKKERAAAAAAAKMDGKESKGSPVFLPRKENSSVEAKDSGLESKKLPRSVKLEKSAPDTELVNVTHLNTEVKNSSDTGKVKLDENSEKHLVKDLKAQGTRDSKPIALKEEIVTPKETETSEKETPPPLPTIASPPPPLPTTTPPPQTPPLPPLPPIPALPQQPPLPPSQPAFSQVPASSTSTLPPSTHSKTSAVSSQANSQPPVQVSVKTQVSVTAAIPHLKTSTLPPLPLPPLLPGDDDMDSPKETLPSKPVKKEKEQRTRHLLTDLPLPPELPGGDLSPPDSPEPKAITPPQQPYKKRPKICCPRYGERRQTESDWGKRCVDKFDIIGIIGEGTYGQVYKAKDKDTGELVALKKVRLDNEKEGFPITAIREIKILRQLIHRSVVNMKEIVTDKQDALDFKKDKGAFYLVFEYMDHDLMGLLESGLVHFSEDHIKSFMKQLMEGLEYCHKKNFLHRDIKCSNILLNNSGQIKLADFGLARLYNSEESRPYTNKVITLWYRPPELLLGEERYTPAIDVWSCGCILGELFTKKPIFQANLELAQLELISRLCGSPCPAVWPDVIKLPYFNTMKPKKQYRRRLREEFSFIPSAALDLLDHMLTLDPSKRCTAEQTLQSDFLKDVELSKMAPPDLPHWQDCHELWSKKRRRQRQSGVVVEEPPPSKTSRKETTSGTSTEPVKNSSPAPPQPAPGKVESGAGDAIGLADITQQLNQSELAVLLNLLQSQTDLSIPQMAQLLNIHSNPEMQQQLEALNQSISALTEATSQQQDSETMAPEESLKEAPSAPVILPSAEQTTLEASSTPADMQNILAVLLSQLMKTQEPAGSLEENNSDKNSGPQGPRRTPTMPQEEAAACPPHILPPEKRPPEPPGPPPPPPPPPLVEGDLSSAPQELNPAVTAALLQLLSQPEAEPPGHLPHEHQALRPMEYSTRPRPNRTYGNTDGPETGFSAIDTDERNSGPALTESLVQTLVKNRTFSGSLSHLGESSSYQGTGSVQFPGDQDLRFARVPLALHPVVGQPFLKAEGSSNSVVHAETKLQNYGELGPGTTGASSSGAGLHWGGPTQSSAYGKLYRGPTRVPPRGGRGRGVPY
Sequence (O75909 whole entry partner): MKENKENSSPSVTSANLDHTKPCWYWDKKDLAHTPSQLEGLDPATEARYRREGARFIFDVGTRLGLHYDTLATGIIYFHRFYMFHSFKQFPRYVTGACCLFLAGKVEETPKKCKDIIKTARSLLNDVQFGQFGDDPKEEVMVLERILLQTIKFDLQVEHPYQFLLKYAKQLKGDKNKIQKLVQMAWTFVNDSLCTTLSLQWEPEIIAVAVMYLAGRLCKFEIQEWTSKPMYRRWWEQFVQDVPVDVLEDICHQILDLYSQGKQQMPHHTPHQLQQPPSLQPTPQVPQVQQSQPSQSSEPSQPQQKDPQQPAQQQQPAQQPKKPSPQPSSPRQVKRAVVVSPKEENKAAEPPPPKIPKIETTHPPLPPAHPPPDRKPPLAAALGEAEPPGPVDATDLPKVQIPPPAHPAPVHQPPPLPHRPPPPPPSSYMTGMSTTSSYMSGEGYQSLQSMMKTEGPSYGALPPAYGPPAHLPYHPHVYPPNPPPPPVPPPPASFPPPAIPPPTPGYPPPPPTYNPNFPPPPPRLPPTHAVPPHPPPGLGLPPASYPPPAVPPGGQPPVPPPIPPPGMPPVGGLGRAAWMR
Lab note: compare DC50 with 1 nM, writing Met if less and Not met if equal or more.

Consider the following illustrative entries.
CN(CC(C)(C)O)c1nc(NCc2nc3ccccc3[nH]2)c2ncc(C(F)(F)F)n2n1 [Example 30]; Not met
Brc1cnc2c(NCc3nc4ccccc4[nH]3)nc(N3CCOCC3)nn12 [Example 1]; Not met

Ask: is_below(DC50, 1 nM) for C[C@@H]1CN(c2nc(NCc3nc4c(F)c(F)ccc4[nH]3)c3ncc(Br)n3n2)C[C@H](C)N1 [Example 11] ?
Result: Met

Ask: Does the reported DC50 of the following compound sit strictly below 1 nM? COc1cccc2[nH]c(CNc3nc(N4CCOCC4)nn4c(Br)cnc34)nc12 [Example 13]
Result: Not met

Ask: Check if DC50 falls below 1 nM for COc1cccc2[nH]c(CNc3nc(N4CCNCC4)nn4c(Br)cnc34)nc12 [Example 15] .
Result: Not met

Ask: State whether 1 nM exceeds DC50 recorded for C[C@@H]1CN(c2nc(NCc3nc4c(F)cccc4[nH]3)c3ncc(Br)n3n2)C[C@H](C)N1 [Example 18] .
Result: Met

Ask: Hello, is DC50 of the following compound strictly smaller than 1 nM? CN1CCN(c2nc(NCc3nc4c(F)cccc4[nH]3)c3ncc(Br)n3n2)CC1 [Example 23]
Result: Not met

Ask: # strict comparison: is reported DC50 < 1 nM? input = C[C@@H]1CN(c2nc(NCc3nc4ccccc4[nH]3)c3ncc(Br)n3n2)C[C@H](C)O1 [Example 4]
Result: Not met

Ask: Record Fc1ccc2[nH]c(CNc3nc(N4CCOCC4)nn4c(Br)cnc34)nc2c1 [Example 20] : is its DC50 strictly below 1 nM?
Result: Met

Ask: Strictly below 1 nM in DC50? CN1CCN(c2nc(NCc3nc4ccccc4[nH]3)c3ncc(C(F)(F)F)n3n2)CC1 [Example 25]
Result: Not met

Ask: # check: DC50 < 1 nM for C[C@@H]1CN(c2nc(NCc3nc4ccccc4[nH]3)c3ncc(Br)n3n2)C[C@H](C)N1 [Example 9]
Result: Met

Ask: Identify whether the compound Fc1cccc(-c2cnc3c(NCc4nc5ccccc5[nH]4)nc(N4CCOCC4)nn23)c1 [Example 3] records DC50 below 1 nM.
Result: Not met

Ask: DC50 strictly < 1 nM for this compound? COc1cccc2[nH]c(CNc3nc(N4CCN(C)CC4)nn4c(Br)cnc34)nc12.O=CO [Example 16]
Result: Not met

Ask: Consider the compound CN1CCN(c2nc(NCc3nc4ccccc4[nH]3)c3ncc(Br)n3n2)CC1 [Example 6] . Is its DC50 strictly less than 1 nM?
Result: Not met

Ask: is_below(DC50, 1 nM) for CN1CCN(c2nc(NCc3nc4cc(F)ccc4[nH]3)c3ncc(Br)n3n2)CC1 [Example 21] ?
Result: Not met

Ask: Please let me know if C[C@@H]1CN(c2nc(NCc3nc4c(F)c(F)ccc4[nH]3)c3ncc(C(F)(F)F)n3n2)C[C@H](C)N1 [Example 29] shows DC50 below 1 nM.
Result: Met
